B1: TEKT4 (parent)
chain: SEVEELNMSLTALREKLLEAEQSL

- Variants of: B1
- ASSAY NAME: protein stability index of a GFP-peptide fusion (GPS, HEK-293T) (PSI 1-6); higher = more stable;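 further: lentivirally expressed fusions sorted by FACS into six bins by GFP to DsRed ratio, PSI derived from sequencing read proportions per bin multiplied by bin number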
- CONDITIONS: c terminus: a fixed tail appended
ASSAY READOUT: protein stability index
// return just the number, without any unit appended

Complete the entry with protein stability index for SEVEELIMSLTALREKLLEAEQSL [N7I] 3.09

Indicate its recorded protein stability index; the variant in question is SESEELNMSLTALREKLLEAEQSL [V3S] 3.29

Specify reported protein stability index for the variant shown: SEVEELNHSLTALREKLLEAEQSL [M8H] 2.96

Quickly give me recorded protein stability index for SEVEELNMSLTALREKLLEAWQSL [E21W] 2.36

Supply recorded protein stability index for SEVEELNMSLTALREKLLEALQSL [E21L] here. 2.81

Answer with the recorded protein stability index for the variant listed here: SEVEELNMSLTALREKLKEAEQSL [L18K] 4.74

Complete the entry with protein stability index for SEVEELNMSLTALREKLPEAEQSL [L18P] 5.43

Identify protein stability index associated with the variant SEVEALNMSLTALREKLLEAEQSL [E5A] 2.37

Indicate the recorded protein stability index value for this variant: SEVEELNMSLTALRWKLLEAEQSL [E15W] 1.59

Provide protein stability index value for the following variant: SEVEEANMSLTALREKLLEAEQSL [L6A] 3.81

For the variant SEVEELNMSLTALREKLLEAEVSL [Q22V] , give its reported protein stability index. 2.23
